Recorded MIC50 values for a group of compounds are listed next.
runDescription: Antifungal activity against Histoplasma capsulatum G217B ATCC 26032 assessed as inhibition of visible growth after 5 days
Assay type: functional
// units = µM; emit number, no label

Reference set (3 entries):
smilesCode: O=C(CC1CCCCC1)Nc1ncc(Cc2ccc3ccccc3c2)s1
MIC50, µM: 5.7
--
smilesCode: O=C(CCC1CCCCC1)Nc1ncc(CCc2ccccc2)s1
MIC50, µM: 0.7
--
smilesCode: O=C(CCC1CCCCC1)Nc1ncc(Cc2ccccc2Cl)s1
MIC50, µM: 0.9

Asked: Could you share which MIC50 value was measured for `O=C(Nc1ncc(Cc2ccccc2)s1)C1CCCC1` ?
Given back: 1.6

Asked: Could you share which MIC50 value was measured for `CC(C)C(=O)Nc1ncc(Cc2ccc3ccccc3c2)s1` ?
Given back: 4.5

Asked: Could you share which MIC50 value was measured for `O=C(Nc1nc(C23CC4CC(CC(C4)C2)C3)cs1)C1CCCCC1` ?
Given back: 2.5

Asked: Could you share which MIC50 value was measured for `O=C(Nc1ncc(CCc2ccccc2)s1)C1CCCC1` ?
Given back: 0.9

Origin of values: ChEMBL document CHEMBL3393037
